test system: spontaneously hypertensive rats; experiment: Antihypertensive action, tail-cuff method, single oral dose; format: in vivo; conditions: difference in blood pressure before and after administration; 10 mg/kg oral; an hour after the administration; two rats
Antihypertensive Action: recorded values
All answers are understood in mmHg, so give the number only.

Known Antihypertensive Action results, listed for orientation:
COMPOUND	Antihypertensive Action (mmHg)
COC(=O)C1=C(C)NC(C)=C(C(=O)OCC2(CN(C)C)CCCCC2)C1c1cccc([N+](=O)[O-])c1 (single isomer, unassigned)	-53
COC(=O)C1=C(C)NC(C)=C(C(=O)OCC2(CN(C)Cc3ccccc3)CCCCC2)C1c1cccc([N+](=O)[O-])c1.Cl (single isomer, unassigned; (+)) [Example 18]	-96
CCOC(=O)C1=C(C)NC(C)=C(C(=O)OCC2(CN(C)Cc3ccccc3)CCCCC2)C1c1cccc([N+](=O)[O-])c1 (racemic)	-110
CCN(Cc1ccccc1)CC1(COC(=O)C2=C(C)NC(C)=C(C(=O)OC)C2c2cccc([N+](=O)[O-])c2)CCCCC1 (single isomer, unassigned)	-109
COC(=O)C1=C(C)NC(C)=C(C(=O)OCC2(CN3CCN(Cc4ccccc4)CC3)CCCCC2)C1c1cccc([N+](=O)[O-])c1 (single isomer, unassigned) [Example 25]	-98

Pending compound:
Query string: So what does the record say about Antihypertensive Action for COC(=O)C1=C(C)NC(C)=C(C(=O)OCCN(C)Cc2ccccc2)C1c1cccc([N+](=O)[O-])c1 (stereo not drawn) [Nicardipine, nicardipine, reference compound] ?
Result string: -77

====

system: spontaneously hypertensive rats; assay: Antihypertensive action, tail-cuff method, single oral dose; format: in vivo; settings: difference in blood pressure before and after administration; 10 mg/kg oral; an hour after the administration; two rats
Structures can show the parent of a compound that is named as a salt.
Antihypertensive Action: recorded values
All answers are understood in mmHg, so give the number only.

Known Antihypertensive Action results, listed for orientation:
COMPOUND	Antihypertensive Action / mmHg
COC(=O)C1=C(C)NC(C)=C(C(=O)OCC2(CN(C)Cc3ccccc3)CCCCC2)C1c1cc([N+](=O)[O-])ccc1F (racemic)	-140
COC(=O)C1=C(C)NC(C)=C(C(=O)OCC2(CN3CCN(c4ccccc4)CC3)CCCCC2)C1c1cccc([N+](=O)[O-])c1 (single isomer, unassigned; (+)) [Example 20, dihydrochloride]	-129

Query string: So what Antihypertensive Action did COC(=O)C1=C(C)NC(C)=C(C(=O)OCC2(CN(C)Cc3ccccc3Cl)CCCCC2)C1c1cccc([N+](=O)[O-])c1 (racemic) get with spontaneously hypertensive rats?
Result string: -120
